target.under.test: TEAD3 YAP50-100 (Homo sapiens, UniProt Q99594)
method.summary: TEAD3-YAP HTRF (TR-FRET) protein-protein interaction assay
Format: binding
reported.conditions: TEAD3, YAP peptide 50-100, HTRF
Could you mark each record yes (1) if its TEAD3 YAP50-100 HTRF combined: Max % Inhibition falls strictly under 70%, and no (0) if it equals or exceeds it?

These recorded examples may help you get a feel for the data.
- COc1ccnc(-c2nn3c(=O)cc(-c4ccc(C5CCCCC5)cc4)[nH]c3c2C(=O)N2CC(CF)C2)n1: yes (1)
- CN(C)C(=O)c1nn2c(=O)cc(-c3cc(F)c(C4CCCCC4)c(F)c3)[nH]c2c1C(=O)N1CC(CF)C1: yes (1)
- Cc1nccnc1-c1nn2c(=O)cc(-c3ccc(C4(F)CCCCC4)cc3)[nH]c2c1C(=O)N1CC(CF)C1: yes (1)
- Cc1nccnc1-c1nn2c(=O)cc(-c3ccc(C4CCCCC4)cc3)[nH]c2c1C(=O)N1C[C@@H](CF)[C@H]1C (single isomer, unassigned) [Isomer A, Example 41]: no (0)
- Cc1nccnc1-c1nn2c(=O)cc(-c3ccc(-c4ccccc4)cc3)[nH]c2c1C(=O)N1CC(CF)C1: no (0)
- Cc1nccnc1-c1nn2c(=O)cc(-c3ccc(C4CCCC4)cc3)[nH]c2c1C(=O)N1C[C@H](CF)[C@@H]1C: no (0)
- O=C(c1c(-c2ncccn2)nn2c(=O)cc(-c3ccc(C4(C5CCCC5)CC4)cc3)[nH]c12)N1CC(CF)C1: yes (1)
- CC(C)(C)c1ccc(COc2cc(=O)n3nc(-c4cnccn4)c(C(=O)N4CC(CF)C4)c3[nH]2)cc1: yes (1)
- Cc1nccnc1-c1nn2c(=O)cc(-c3ccc(C4CCC(F)(F)CC4)cc3)[nH]c2c1C(=O)N1CC(CF)C1: yes (1)
- Cc1cnc(-c2nn3c(=O)cc(-c4ccc(C5CCCCC5)cc4)[nH]c3c2C(=O)N2CC(CF)C2)cn1: yes (1)

Incoming: Would you kindly verify if TEAD3 YAP50-100 HTRF combined: Max % Inhibition of O=C(c1c(-c2ncccn2)nn2c(=O)cc(-c3ccc(CC4CCCC4)cc3)[nH]c12)N1CC(CF)C1 is strictly less than 70%?
Outgoing: yes (1)

Incoming: Same lookup for Cc1nccnc1-c1nn2c(=O)cc(-c3ccc(O[C@@H](c4ccccc4)C(F)(F)F)cc3)[nH]c2c1C(=O)N1CC(CF)C1 , please.
Outgoing: no (0)

Incoming: Next up: CCCCCCC/C=C/c1cc(=O)n2nc(-c3nccnc3C)c(C(=O)N3C[C@H](CF)[C@@H]3C)c2[nH]1
Outgoing: yes (1)

Incoming: Then this compound: Cc1nccnc1-c1nn2c(=O)cc(-c3ccc(C4CCCCC4)cc3)[nH]c2c1C(=O)N1C[C@H](CF)[C@@H]1C (single isomer, unassigned) [Isomer B, Example 41]
Outgoing: no (0)

Incoming: Okay, and CCc1ccnc(-c2nn3c(=O)cc(-c4ccc(C5CCCCC5)cc4)[nH]c3c2C(=O)N2CC(CF)C2)n1 ?
Outgoing: yes (1)

Incoming: Quick one: Cc1nccnc1-c1nn2c(=O)cc(-c3ccc(C4CCCCC4)cc3)[nH]c2c1C(=O)N(C)C
Outgoing: yes (1)

* * *

target.under.test: TEAD2 TAZ (amino acids 13-57) (Homo sapiens)
Sequence (Q15562 217-447): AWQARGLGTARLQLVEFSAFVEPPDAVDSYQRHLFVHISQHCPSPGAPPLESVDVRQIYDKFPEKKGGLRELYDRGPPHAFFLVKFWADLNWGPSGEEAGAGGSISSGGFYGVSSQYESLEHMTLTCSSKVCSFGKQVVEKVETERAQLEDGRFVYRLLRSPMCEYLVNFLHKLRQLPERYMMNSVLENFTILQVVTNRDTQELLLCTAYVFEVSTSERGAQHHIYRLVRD
method.summary: TEAD2-TAZ HTRF (TR-FRET) protein-protein interaction assay
Format: binding
reported.conditions: TEAD2, TAZ peptide, HTRF
attribute.measured: TEAD2 TAZ HTRF combined: Max % Inhibition (%)
Provide the reading as a plain figure in %.

• Cc1nccnc1-c1nn2c(=O)cc(-c3ccc(C4CCC(F)(F)CC4)cc3)[nH]c2c1C(=O)N1CC(CF)C1 [Compound 55] = 60.0
• CC(C)c1ccnc(-c2nn3c(=O)cc(-c4ccc(C5CCCCC5)cc4)[nH]c3c2C(=O)N2CC(CF)C2)n1 [Compound 10] = 65.0

Incoming: Fill in: TEAD2 TAZ HTRF combined: Max % Inhibition of COc1nccnc1-c1nn2c(=O)cc(-c3ccc(C4CCCCC4)cc3)[nH]c2c1C(=O)N1CC(CF)C1 [Compound 13] is ___
Outgoing: 60.0

Incoming: CC(C)(C)c1ccc(COc2cc(=O)n3nc(-c4ncccn4)c(C(=O)N4CC(CF)C4)c3[nH]2)cc1 [Compound 54] ?
Outgoing: 59.5

Incoming: Ok, now CN(C)C(=O)c1nn2c(=O)cc(-c3cc(F)c(C4CCCCC4)c(F)c3)[nH]c2c1C(=O)N1CC(CF)C1 [Compound 3]
Outgoing: 55.0

Incoming: Proceed to C[C@H]1[C@@H](CF)CN1C(=O)c1c(-c2cnccn2)nn2c(=O)cc(-c3ccc(C4CCCCC4)cc3)[nH]c12 (single isomer, unassigned) [Isomer A, Example 39]
Outgoing: 77.0

Incoming: Same question, CN(C)C(=O)c1nn2c(=O)cc(-c3ccc(C4CCCCC4)c(F)c3)[nH]c2c1C(=O)N1CC(CF)C1 [Compound 4] this time
Outgoing: 64.5

* * *

target.under.test: TEAD3 YAP50-100 (Homo sapiens)
method.summary: TEAD3-YAP HTRF (TR-FRET) protein-protein interaction assay
reported.conditions: TEAD3, YAP peptide 50-100, HTRF; read-out: TEAD3 YAP50-100 HTRF combined: EC50
The entries below come with measured pEC50 values attached.
Please note pEC50 is a logarithmic value: minus log10 of concentration in mol/L. Answer with that number alone.

In the examples that follow, each entry is paired with its recorded pEC50.
• Cc1ccnc(-c2nn3c(=O)cc(-c4ccc(C5CCCCC5)cc4)[nH]c3c2C(=O)N2CC(CF)C2)c1C [Compound 29] = 6.74
• O=C(c1c(C2CNCCO2)nn2c(=O)cc(-c3ccc(C4CCCCC4)cc3)[nH]c12)N1CC(CF)C1 (single isomer, unassigned) [Enantiomer B, Example 63] = 6.82
• O=C(c1c(C2CNCCO2)nn2c(=O)cc(-c3ccc(C4CCCCC4)cc3)[nH]c12)N1CC(CF)C1 (single isomer, unassigned) [Enantiomer A, Example 63] = 6.74

Incoming: # get_value(readout='pEC50', item= CCCCCCCCCc1cc(=O)n2nc(-c3nccnc3C)c(C(=O)N3C[C@H](CF)[C@@H]3C)c2[nH]1 [Compound 71] )
Outgoing: 7.22

Incoming: Same thing, different compound: C[C@H]1[C@@H](CF)CN1C(=O)c1c(-c2ncccn2)nn2c(=O)cc(-c3ccc(C4CCCCC4)cc3)[nH]c12 (single isomer, unassigned) [Isomer B, Example 40]
Outgoing: 6.36

Incoming: Check O=C(c1c(-c2cccnc2)nn2c(=O)cc(-c3ccc(C4CCCCC4)cc3)[nH]c12)N1CC(CF)C1 [Compound 37] too.
Outgoing: 6.82

Incoming: How about this compound: Cc1nccnc1-c1nn2c(=O)cc(-c3ccc(OC(c4ccccc4)C(F)(F)F)cc3)[nH]c2c1C(=O)N1C[C@H](CF)[C@@H]1C (single isomer, unassigned) [Final product obtained using Enantiomer A from Step 1, Example 56]
Outgoing: 6.43

Incoming: Field entry: C[C@H]1[C@@H](CF)CN1C(=O)c1c(-c2cnccn2)nn2c(=O)cc(-c3ccc(CC4CCCC4)cc3)[nH]c12 (single isomer, unassigned) [Isomer A, Example 44]
Outgoing: 5.98

Incoming: Request: O=C(c1c(-c2ncco2)nn2c(=O)cc(-c3ccc(C4CCCCC4)cc3)[nH]c12)N1CC(CF)C1 [Compound 19]
Outgoing: 7.22

Incoming: // next record Cc1nccnc1-c1nn2c(=O)cc(-c3ccc(C(F)(F)C4CCCC4)cc3)[nH]c2c1C(=O)N1CC(CF)C1 [Compound 56]
Outgoing: 7.00

Incoming: Now consider Cc1nccnc1-c1nn2c(=O)cc(-c3ccc(C4CCCCC4)cc3)[nH]c2c1C(=O)N1C[C@H](CF)[C@@H]1C (single isomer, unassigned) [Isomer B, Example 41] .
Outgoing: 6.92

* * *

// reported TEAD3 TAZ HTRF combined: Max % Inhibition per item
target.under.test: TEAD3 TAZ (amino acids 13-57) (Homo sapiens, UniProt Q99594)
Sequence (Q99594 173-435 limits assumed): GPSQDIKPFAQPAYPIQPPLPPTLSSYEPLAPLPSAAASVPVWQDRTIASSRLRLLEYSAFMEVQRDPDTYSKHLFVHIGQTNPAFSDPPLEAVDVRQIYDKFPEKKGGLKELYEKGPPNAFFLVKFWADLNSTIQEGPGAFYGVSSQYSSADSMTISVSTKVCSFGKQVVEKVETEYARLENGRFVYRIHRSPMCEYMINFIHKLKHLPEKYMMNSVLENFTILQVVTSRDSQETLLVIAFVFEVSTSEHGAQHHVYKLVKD
method.summary: TEAD3-TAZ HTRF (TR-FRET) protein-protein interaction assay
Assay type: binding
reported.conditions: TEAD3, TAZ peptide, HTRF
# include the unit after the value

• C[C@H]1[C@@H](CF)CN1C(=O)c1c(-c2ncccn2)nn2c(=O)cc(-c3ccc(C4CCCCC4)cc3)[nH]c12 (single isomer, unassigned) [Isomer B, Example 40] = 70.0%
• O=C(c1c(-c2nccnc2C(F)(F)F)nn2c(=O)cc(-c3ccc(C4CCCCC4)cc3)[nH]c12)N1CC(CF)C1 = 61.0%

Now, please, on to the next compound.
Incoming: Which TEAD3 TAZ HTRF combined: Max % Inhibition is reported for this compound? C[C@@H](CO)c1nn2c(=O)cc(-c3ccc(C4CCCCC4)cc3)[nH]c2c1C(=O)N1CC(CF)C1 (single isomer, unassigned) [Enantiomer B, Example 55]
Outgoing: 53.5%
